Value source: patent US20240400708A1

# SYSTEM NAME: feline FcRn complex (FcRn-α subunit and β-microglobulin) (feline)
# ASSAY: SPR (Biacore), FcRn on SA chip, pH 6
MEASUREMENT LABEL: Kd (nM)
# unit: nM | format: bare number

If you can, please state the reported Kd value of feline IgG1a mutant ID No. 336: S252Y, S428M, S434F, A431K (antibody, part only; not given: Variable domains, not shown: another chain or arm of the molecule) constant: ASTTAPSVFPLAPSCGTTSGATVALACLVLGYFPEPVTVSWNSGALTSGVHTFPAVLQASGLYSLSSMVTVPSSRWLSDTFTCNVAHPPSNTKVDKTVRKTDHPPGPKPCDCPKCPPPEMLGGPSIFIFPPKPKDTLYISRTPEVTCLVVDLGPDDSDVQITWFVDNTQVYTAKTSPREEQFNSTYRVVSVLPILHQDWLKGKEFKCKVNSKSLPSPIERTISKAKGQPHEPQVYVLPPAQEELSRNKVSVTCLIKSFHPPDIAVEWEITGQPEPENNYRTTPPQLDSDGTYFVYSKLSVDRSHWQRGNTYTCSVMHEKLHFHHTQKSLTQSPGK .
0.0359
